Where do these numbers come from? They come from ChEMBL document CHEMBL1148562.

Tested on: LS174T
experimental_details: Cytotoxicity against LS174T human colon cell line after 1 hour of exposure
Assay type: functional, cell-based
property: pIC50
One number for each entry, as −log10 of the molar value.

COc1cc2c(cc1OCCCOc1cc3c(cc1OC)C(=O)N1CCC[C@H]1[C@H](O)N3C(=O)OCc1ccc(NC(=O)N[C@@H](CCC(=O)O)C(=O)O)cc1)N(C(=O)OCc1ccc(NC(=O)N[C@@H](CCC(=O)O)C(=O)O)cc1)[C@@H](O)[C@@H]1CCCN1C2=O : 8.22
COc1cc2c(cc1OCCCOc1cc3c(cc1OC)C(=O)N1CCC[C@H]1C=N3)N=C[C@@H]1CCCN1C2=O : 7.89
COc1cc2c(cc1OCCCOc1cc3c(cc1OC)C(=O)N1CCC[C@H]1[C@H](O)N3C(=O)OCc1ccc(OC(=O)N[C@@H](CCC(=O)O)C(=O)O)cc1)N(C(=O)OCc1ccc(OC(=O)N[C@@H](CCC(=O)O)C(=O)O)cc1)[C@@H](O)[C@@H]1CCCN1C2=O : 6.70

Items follow; give pIC50 for each.
1. COc1cc2c(cc1OC)C(=O)N1CCC[C@H]1C=N2
2. COc1cc2c(cc1OC)N(C(=O)OCc1ccc(NC(=O)N[C@@H](CCC(=O)O)C(=O)O)cc1)[C@@H](O)[C@@H]1CCCN1C2=O

1: 4.85; 2: 4.55
